Measured values drawn from PubChem BioAssay (EPA / NIEHS) for this set.

# Read-out: TIMP metallopeptidase inhibitor 2 (TIMP2), TIMP2 (gene 7077)
# test.name: BSK_KF3CT_TIMP2: BioMAP Diversity Plus: KF3CT Assay for TIMP metallopeptidase inhibitor 2 (TIMP2) Biomarker Activity (AID 2283071)
# test.settings: primary human keratinocytes with fibroblasts; actives raise or lower the signal
Activity calls are given as the source filed them. How the source made its calls: active means hit-call score of the fitted dose curve at least 0.9, where 1 is the maximum; inactive means score below 0.9.
measured.property: AC50

                                   compound  measured_property      result_value
0  CC1OC1C1CCC2(C)OC2C1 (centres undefined)               AC50          inactive
1          C=C[Si](OC(C)=O)(OC(C)=O)OC(C)=O               AC50          inactive
2                   C=CCOc1c(Br)cc(Br)cc1Br               AC50  11.4 µM (active)
3                       c1ccc(-c2ccccn2)nc1               AC50          inactive
